assay: Cytotoxicity MTT assay in Vero E6 cells; details: African green monkey
quantity.measured: CC50

Query: Item under review: CCCC[C@H](NC(=O)[C@@H]1[C@@H]2[C@H](CN1C(=O)[C@@H](NC(=O)NC1(CS(=O)(=O)C(C)(C)C)CCCCC1)C(C)(C)C)C2(C)C)C(=O)C(=O)NC1CC1 [NAR, narlaprevir] . Reported CC50?
Response: > 20 µM

---

IC50 by entry:
test system: SARS-CoV-2; assay: SARS-CoV-2 viral replication assay in Vero E6 cells; assay type: cell-based; conditions: Severe acute respiratory syndrome coronavirus 2, Vero C1008
Give the quantity in µM, number only.

CC[C@@H]1C[C@]1(NC(=O)[C@@H]1C[C@@H]2CN1C(=O)[C@H](C(C)(C)C)NC(=O)OCC(C)(C)CCCCc1cccc3c1CN(C3)C(=O)O2)C(=O)NS(=O)(=O)C1CC1 [VAN, vaniprevir]
6.2

Moving on to another compound below.
Query: Item under review: CCCC[C@H](NC(=O)[C@@H]1[C@@H]2[C@H](CN1C(=O)[C@@H](NC(=O)NC1(CS(=O)(=O)C(C)(C)C)CCCCC1)C(C)(C)C)C2(C)C)C(=O)C(=O)NC1CC1 [NAR, narlaprevir] . Reported IC50?
Response: 7.7

---

assay: Cytotoxicity in HEK 293T cells; conditions: human
quantity.measured: CC50

Query: Item under review: CC[C@@H]1C[C@]1(NC(=O)[C@@H]1C[C@@H]2CN1C(=O)[C@H](C(C)(C)C)NC(=O)OCC(C)(C)CCCCc1cccc3c1CN(C3)C(=O)O2)C(=O)NS(=O)(=O)C1CC1 . Reported CC50?
Response: > 50 µM

---

test: in vitro; settings: human
quantity.measured: CC50

Cc1cnc(C(=O)N[C@H]2CCCCC/C=C\[C@@H]3C[C@@]3(C(=O)NS(=O)(=O)C3CC3)NC(=O)[C@@H]3C[C@@H](Oc4nc5ccccc5c5ccccc45)CN3C2=O)cn1
> 100 µM
COc1ccc2c(O[C@@H]3C[C@H]4C(=O)N[C@]5(C(=O)NS(=O)(=O)C6CC6)C[C@H]5/C=C\CCCCN(C)C(=O)[C@@H]4C3)cc(-c3nc(C(C)C)cs3)nc2c1C
> 50 µM

Query: Item under review: CC(C)(C)NC(=O)N[C@H](C(=O)N1C[C@H]2[C@@H]([C@H]1C(=O)NC(CC1CCC1)C(=O)C(N)=O)C2(C)C)C(C)(C)C (stereo partly drawn) . Reported CC50?
Response: > 50 µM

---

test system: SARS-CoV-2; experiment: SARS-CoV-2 viral replication assay in Vero E6 cells; assay type: cell-based; conditions: viral replication, Vero E6 Cells; read-out: IC50
quantity.measured: IC50 (µM)
Give the quantity in µM, number only.

Query: Item under review: C=C[C@@H]1C[C@]1(NC(=O)[C@@H]1C[C@@H]2CN1C(=O)[C@H](C(C)(C)C)NC(=O)O[C@@H]1C[C@H]1CCCCCc1nc3ccc(OC)cc3nc1O2)C(=O)NS(=O)(=O)C1CC1.O . Reported IC50?
Response: 10.8

Data credit: patent US20230372381A1
